MEASUREMENT NOTES: Inhibition of Mycobacterium tuberculosis expressing RNA polymerase RpoB S450L mutant after 10 mins using ribo green by rolling circle transcription assay
Listing of entries alongside the reported log10 of IC50.
EXPERIMENTAL READOUT: log10 of IC50 (log10 of the value in µM)

SAMPLE SMILES	log10 of IC50
CO[C@H]1/C=C/O[C@@]2(C)Oc3c(C)c(SC)c4c(c3C2=O)C(=O)C=C(NC(=O)/C(C)=C\C=C\[C@H](C)[C@H](O)[C@@H](C)[C@@H](O)[C@@H](C)[C@H](OC(C)=O)[C@@H]1C)C4=O	1.57
CO[C@H]1/C=C/O[C@@]2(C)Oc3c(C)c(O)c4c(c3C2=O)C(=O)C=C(NC(=O)/C(C)=C\C=C\[C@H](C)[C@H](O)[C@@H](C)[C@@H](O)[C@@H](C)[C@H](OC(C)=O)[C@@H]1C)C4=O	1.56
CO[C@H]1/C=C/O[C@@]2(C)Oc3c(C)c(N)c4c(c3C2=O)C(=O)C=C(NC(=O)/C(C)=C\C=C\[C@H](C)[C@H](O)[C@@H](C)[C@@H](O)[C@@H](C)[C@H](OC(C)=O)[C@@H]1C)C4=O	2.27
CO[C@H]1/C=C/O[C@@]2(C)Oc3c(C)c(NC4CCCCCC4)c4c(c3C2=O)C(=O)C=C(NC(=O)/C(C)=C\C=C\[C@H](C)[C@H](O)[C@@H](C)[C@@H](O)[C@@H](C)[C@H](OC(C)=O)[C@@H]1C)C4=O	2.10
CO[C@H]1/C=C/O[C@@]2(C)Oc3c(C)c(OS(=O)(=O)c4ccc(C)cc4)c4c(c3C2=O)C(=O)C=C(NC(=O)/C(C)=C\C=C\[C@H](C)[C@H](O)[C@@H](C)[C@@H](O)[C@@H](C)[C@H](OC(C)=O)[C@@H]1C)C4=O	2.99
CO[C@H]1/C=C/O[C@@]2(C)Oc3c(C)c(N(C)C)c4c(c3C2=O)C(=O)C=C(NC(=O)/C(C)=C\C=C\[C@H](C)[C@H](O)[C@@H](C)[C@@H](O)[C@@H](C)[C@H](OC(C)=O)[C@@H]1C)C4=O	2.43

---

System: Mycobacterium tuberculosis
MEASUREMENT NOTES: Inhibition of Mycobacterium tuberculosis expressing RNA polymerase RpoB S450L mutant after 10 mins using ribo green by rolling circle transcription assay
Listing of entries alongside the reported logIC50.
EXPERIMENTAL READOUT: logIC50

SAMPLE SMILES	TEST VALUE
CO[C@H]1/C=C/O[C@@]2(C)Oc3c(C)c(NC4CCCCCC4)c4c(c3C2=O)C(=O)C=C(NC(=O)/C(C)=C\C=C\[C@H](C)[C@H](O)[C@@H](C)[C@@H](O)[C@@H](C)[C@H](OC(C)=O)[C@@H]1C)C4=O	2.1
CO[C@H]1/C=C/O[C@@]2(C)Oc3c(C)c(OS(=O)(=O)c4ccc(C)cc4)c4c(c3C2=O)C(=O)C=C(NC(=O)/C(C)=C\C=C\[C@H](C)[C@H](O)[C@@H](C)[C@@H](O)[C@@H](C)[C@H](OC(C)=O)[C@@H]1C)C4=O	2.99
CO[C@H]1/C=C/O[C@@]2(C)Oc3c(C)c(O)c4c(c3C2=O)C(=O)C=C(NC(=O)/C(C)=C\C=C\[C@H](C)[C@H](O)[C@@H](C)[C@@H](O)[C@@H](C)[C@H](OC(C)=O)[C@@H]1C)C4=O	1.56
CO[C@H]1/C=C/O[C@@]2(C)Oc3c(C)c(N)c4c(c3C2=O)C(=O)C=C(NC(=O)/C(C)=C\C=C\[C@H](C)[C@H](O)[C@@H](C)[C@@H](O)[C@@H](C)[C@H](OC(C)=O)[C@@H]1C)C4=O	2.27

---

System: Mycobacterium tuberculosis
MEASUREMENT NOTES: Inhibition of Mycobacterium tuberculosis expressing RNA polymerase RpoB S450L mutant after 10 mins using ribo green by rolling circle transcription assay
EXPERIMENTAL READOUT: logIC50

SAMPLE SMILES	EXPERIMENTAL READOUT	TEST VALUE
CO[C@H]1/C=C/O[C@@]2(C)Oc3c(c4c5c(nn(CCO)c5c3C)C(=C(/C=N/N3CCN(C)CC3)C4=O)NC(=O)/C(C)=C\C=C\[C@H](C)[C@H](O)[C@@H](C)[C@@H](O)[C@@H](C)[C@H](OC(C)=O)[C@@H]1C)C2=O	logIC50	1.48
CO[C@H]1/C=C/O[C@@]2(C)Oc3c(C)c(N(C)C)c4c(c3C2=O)C(=O)C=C(NC(=O)/C(C)=C\C=C\[C@H](C)[C@H](O)[C@@H](C)[C@@H](O)[C@@H](C)[C@H](OC(C)=O)[C@@H]1C)C4=O	logIC50	2.43
CO[C@H]1/C=C/O[C@@]2(C)Oc3c(C)c(O)c4c(c3C2=O)C(=O)C(/C=N/N2CCN(C)CC2)=C(NC(=O)/C(C)=C\C=C\[C@H](C)[C@H](O)[C@@H](C)[C@@H](O)[C@@H](C)[C@H](OC(C)=O)[C@@H]1C)C4=O	logIC50	1.67
CO[C@H]1/C=C/O[C@@]2(C)Oc3c(C)c(SC)c4c(c3C2=O)C(=O)C=C(NC(=O)/C(C)=C\C=C\[C@H](C)[C@H](O)[C@@H](C)[C@@H](O)[C@@H](C)[C@H](OC(C)=O)[C@@H]1C)C4=O	logIC50	1.57

---

MEASUREMENT NOTES: Inhibition of Mycobacterium tuberculosis expressing RNA polymerase RpoB S450L mutant after 10 mins using ribo green by rolling circle transcription assay
Listing of entries alongside the reported IC50.

COMPOUND	IC50
CO[C@H]1/C=C/O[C@@]2(C)Oc3c(c4c5c(nn(CCO)c5c3C)C(=C(/C=N/N3CCN(C)CC3)C4=O)NC(=O)/C(C)=C\C=C\[C@H](C)[C@H](O)[C@@H](C)[C@@H](O)[C@@H](C)[C@H](OC(C)=O)[C@@H]1C)C2=O	29.9 µM
CO[C@H]1/C=C/O[C@@]2(C)Oc3c(C)c(O)c4c(c3C2=O)C(=O)C(/C=N/N2CCN(C)CC2)=C(NC(=O)/C(C)=C\C=C\[C@H](C)[C@H](O)[C@@H](C)[C@@H](O)[C@@H](C)[C@H](OC(C)=O)[C@@H]1C)C4=O [RIFAMPIN S]	46.5 µM

The reported measurements were obtained from ChEMBL document CHEMBL1909569.
